The reader will find reported pIC50 values listed item by item below.
target: Heat shock protein HSP 90-alpha (Homo sapiens)
Interpret pIC50 as the negative base-10 log of the concentration measured in mol/L.

The cases that follow already have their pIC50 on record.
smiles_repr: CC1(C)CC(=O)c2c(C(F)(F)F)nn(-c3ccc(C(N)=O)c(N[C@H]4CC[C@H](OC(=O)CN)CC4)c3)c2C1
pIC50: 7.42
--
smiles_repr: CCc1c2c(nc3ccc(OC(=O)N4CCC(NC(=O)c5noc(-c6cc(C(C)C)c(O)cc6O)c5-c5ccc(CN6CCOCC6)cc5)CC4)cc13)-c1cc3c(c(=O)n1C2)COC(=O)[C@]3(O)CC
pIC50: 6.79
--
smiles_repr: CCc1c2c(nc3ccc(O)cc13)-c1cc3c(c(=O)n1C2)COC(=O)[C@@]3(CC)OC(=O)CNC(=O)c1noc(-c2cc(C(C)C)c(O)cc2O)c1-c1ccc(CN2CCOCC2)cc1
pIC50: 7.14
--
smiles_repr: CCc1c2c(nc3ccc(OC(=O)N4CCC(NC(=O)CNc5cc(-n6nc(C(F)(F)F)c7c6CC(C)(C)CC7=O)ccc5C(N)=O)CC4)cc13)-c1cc3c(c(=O)n1C2)COC(=O)[C@]3(O)CC
pIC50: 5.90

Moving on to another molecule below.
Req: Please look up its pIC50: CCc1c2c(nc3ccc(O)cc13)-c1cc3c(c(=O)n1C2)COC(=O)[C@@]3(CC)OC(=O)CCNC(=O)c1noc(-c2cc(C(C)C)c(O)cc2O)c1-c1ccc(CN2CCOCC2)cc1
Resp: 7.15
